Each recorded value in this set is attributed to the supplement of paper PMC11061612.

Tested on: 639-V (Bladder Carcinoma)
Assay: combination Emax (second highest fraction inhibited in the dose matrix, 72 h); higher = more inhibition; extreme values may be limits of the assay
REPORTED_ENDPOINT: combination Emax
// no unit string in output, number only

| COMPOUND | REPORTED_ENDPOINT | RESULT_VALUE |
| --- | --- | --- |
| Cn1cnc2c(F)c(Nc3ccc(Br)cc3Cl)c(C(=O)NOCCO)cc21 [Selumetinib] + CC(C)n1c(=O)n(C)c2cnc3cc(F)c(-c4ccc(OCCCN5CCCCC5)nc4)cc3c21 [AZD1390] (first compound max 10 µM, 7x7, partner max 0.3 µM) | combination Emax | 0.238 |

Now look at this entry.
Quick check: combination Emax of COc1nnc2ccc(N3CCC(c4ccc(OCCN5CCN(C)C(=O)[C@H]5C)cc4)CC3)nn12 [AZD5153] + C=CCn1c(=O)c2cnc(Nc3ccc(N4CCN(C)CC4)cc3)nc2n1-c1cccc(C(C)(C)O)n1 [AZD1775] (first compound max 1 µM, partner max 1 µM) ?
0.714

----------
Tested on: LB771-HNC (Head and Neck Carcinoma);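 also: after 72 h of two-drug dosing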
Assay: Bliss excess, mean over the matrix (fraction); higher = more synergy
REPORTED_ENDPOINT: Bliss excess

| COMPOUND | Bliss excess |
| --- | --- |
| Cc1nc(Nc2ncc(C(=O)Nc3c(C)cccc3Cl)s2)cc(N2CCN(CCO)CC2)n1 [Dasatinib] + CC(=O)Nc1cccc(-n2c(=O)n(C3CC3)c(=O)c3c(Nc4ccc(I)cc4F)n(C)c(=O)c(C)c32)c1 [Trametinib] (first compound max 2 µM, 7x7, partner max 1 µM) | -0.0363 |

Now look at this entry.
Enter reported Bliss excess observed with LB771-HNC (Head and Neck Carcinoma) for CC1(C)CCC(CN2CCN(c3ccc(C(=O)NS(=O)(=O)c4ccc(NCC5CCOCC5)c([N+](=O)[O-])c4)c(Oc4cnc5[nH]ccc5c4)c3)CC2)=C(c2ccc(Cl)cc2)C1 [Venetoclax] + C=CCn1c(=O)c2cnc(Nc3ccc(N4CCN(C)CC4)cc3)nc2n1-c1cccc(C(C)(C)O)n1 [AZD1775] (first compound max 1 µM, partner max 1 µM)
0.0127

----------
List of combination Emax values.
System: COLO-829 (Melanoma)
Experiment: combination Emax (second highest fraction inhibited in the dose matrix, 72 h); higher = more inhibition; extreme values may be limits of the assay
// no unit string in output, number only

Example cases with answers are listed next.
| COMPOUND | REPORTED_ENDPOINT | RESULT_VALUE |
| --- | --- | --- |
| COc1nnc2ccc(N3CCC(c4ccc(OCCN5CCN(C)C(=O)[C@H]5C)cc4)CC3)nn12 [AZD5153] + C[C@@H]1COCCN1C2=NC(=NC(=C2)C3(CC3)[S@](=N)(=O)C)C4=C5C=CNC5=NC=C4 [AZD6738] (first compound max 1 µM, 7x7, partner max 10 µM) | combination Emax | 0.259 |
| CC1(C)CCC(CN2CCN(c3ccc(C(=O)NS(=O)(=O)c4ccc(NCC5CCOCC5)c([N+](=O)[O-])c4)c(Oc4cnc5[nH]ccc5c4)c3)CC2)=C(c2ccc(Cl)cc2)C1 [Venetoclax] + C1CN(CCC1(C(=O)N[C@@H](CCO)C2=CC=C(C=C2)Cl)N)C3=NC=NC4=C3C=CN4 [Capivasertib] (first compound max 1 µM, 7x7, partner max 3 µM) | combination Emax | 0.16 |
| CN(CCO)CC[C@H](CSc1ccccc1)Nc1ccc(S(=O)(=O)NC(=O)c2ccc(N3CCC([C@@H](O)c4ccccc4-c4ccc(Cl)cc4)CC3)cc2)cc1S(=O)(=O)C(F)(F)F [AZD4320] + Cn1cnc2c(F)c(Nc3ccc(Br)cc3Cl)c(C(=O)NOCCO)cc21 [Selumetinib] (first compound max 1 µM, 7x7, partner max 3 µM) | combination Emax | 0.601 |
| C=CCn1c(=O)c2cnc(Nc3ccc(N4CCN(C)CC4)cc3)nc2n1-c1cccc(C(C)(C)O)n1 [AZD1775] + C1CN(CCC1(C(=O)N[C@@H](CCO)C2=CC=C(C=C2)Cl)N)C3=NC=NC4=C3C=CN4 [Capivasertib] (first compound max 3 µM, partner max 3 µM) | combination Emax | 0.322 |

Enter reported combination Emax observed with COLO-829 (Melanoma) for CCN(CCO)CCCOc1ccc2c(Nc3cc(CC(=O)Nc4cccc(F)c4)[nH]n3)ncnc2c1 [AZD2811] + C=CCn1c(=O)c2cnc(Nc3ccc(N4CCN(C)CC4)cc3)nc2n1-c1cccc(C(C)(C)O)n1 [AZD1775] (first compound max 1 µM, partner max 1 µM)
0.274

Enter reported combination Emax observed with COLO-829 (Melanoma) for C[C@@H](c1ccc2nccn2c1)n1nnc2ncc(-c3cnn(C)c3)nc21 [Savolitinib] + Cc1c2c(nn1C)CSCc1cc(n(C)n1)CSc1cc(c3ccccc3c1)OCCCc1c(C(=O)O)n(C)c3c-2c(Cl)ccc13 [AZD5991] (first compound max 1 µM, 7x7, partner max 1 µM)
0.242

Enter reported combination Emax observed with COLO-829 (Melanoma) for CN(C)CCCOc1ccc(-c2ccc3ncc4c(c3c2)n(C2CCOCC2)c(=O)n4C)cn1 [AZD0156] + C=CCn1c(=O)c2cnc(Nc3ccc(N4CCN(C)CC4)cc3)nc2n1-c1cccc(C(C)(C)O)n1 [AZD1775] (first compound max 1 µM, partner max 1 µM)
0.099
